System: NOMO-1
Assay: cell viability (% survival relative to DMSO control, bortezomib = 0%); higher = less cytotoxic
Conditions: 1 nM; 72 h
Readout Name: cell viability (%)
Form entry: value (%) — number only.

These solved cases illustrate the format of a correct answer.
Nc1ccn([C@@H]2O[C@H](CO)[C@@H](O)[C@@H]2O)c(=O)n1; 107
O=C(O)C(S)=Cc1c[nH]c2ccc(F)cc12; 103
Sc1ncnc2nc[nH]c12; 108

Looking up CC(/C=C1\SC(=S)N(CC(=O)O)C1=O)=C\c1ccccc1 , I see its cell viability listed as 108

Looking up CCCc1nn(C)c2c(O)nc(-c3cc(S(=O)(=O)N4CCN(C)CC4)ccc3OCC)nc12 , I see its cell viability listed as 86.9

Looking up C1CCc2nnc(C34CC5CC(CC(C5)C3)C4)n2CC1 , I see its cell viability listed as 102

Looking up COc1cc2c(NC3CCN(C)CC3)nc(N3CCCN(C)CC3)nc2cc1OCCCN(C)C , I see its cell viability listed as 103

Looking up O=C(O)CC[C@H](NC(=O)c1ccc([N+](=O)[O-])cc1)C(=O)O [(S)-2-(4-Nitrobenzamido)pentanedioic acid] , I see its cell viability listed as 92.4

Looking up CC(C)Cc1sc(N)nc1-c1ccc(P(=O)(O)O)o1 , I see its cell viability listed as 97.7
